Hey, just so you know, these numbers are from the OligoGym collection.

# subject of test: DAGLA
# experimental protocol: pooled miR-30 sensor sort-seq; sequence = guide strand
# experimental parameters: shRNA
test readout: sensor-assay potency score (higher = more potent)
Please respond with just the number, no unit label.

Examples with their reported sensor-assay potency score (higher = more potent) follow.
Input: Assign sensor-assay potency score (higher = more potent) to the following record: TTTGTAGCGGAGCATCTCTTGT
Output: -1.44

Input: Assign sensor-assay potency score (higher = more potent) to the following record: TTGTAGTTCTCCAGCACCTTGT
Output: -0.221

Continuing:
Input: Assign sensor-assay potency score (higher = more potent) to the following record: TAGCGGAGCATCTCTTGTGAAT
Output: -1.2

Input: Assign sensor-assay potency score (higher = more potent) to the following record: TAGAAGTCCGGATCTTGTCAGC
Output: -0.641

Input: Assign sensor-assay potency score (higher = more potent) to the following record: TATACAATATACAGAAACCTTT
Output: -0.353

Input: Assign sensor-assay potency score (higher = more potent) to the following record: TTTTCTAAACTCTAAGAGCCAC
Output: -0.539

###

# subject of test: CLDN6
# experimental protocol: pooled miR-30 sensor sort-seq; sequence = guide strand
# experimental parameters: shRNA
test readout: sensor-assay potency score (higher = more potent)

Input: Name the recorded sensor-assay potency score (higher = more potent) of TAGCGGGCCATGTAATGGCTGG , assay system CLDN6.
Output: -1.06

Input: Name the recorded sensor-assay potency score (higher = more potent) of ACAAAGACAATCCCAGAGGTGA , assay system CLDN6.
Output: -0.71

Input: Name the recorded sensor-assay potency score (higher = more potent) of ATGACAAAGACAATCCCAGAGG , assay system CLDN6.
Output: -1.76

Continuing:
Input: Name the recorded sensor-assay potency score (higher = more potent) of AATCCCAGAGGTGAGCACCAGG , assay system CLDN6.
Output: -1.46

Input: Name the recorded sensor-assay potency score (higher = more potent) of TTTGATAAAAATGTGAGTGTAA , assay system CLDN6.
Output: 0.357

Input: Name the recorded sensor-assay potency score (higher = more potent) of TTGGGCCTCAGCCACCAGGGGG , assay system CLDN6.
Output: -1.51

Input: Name the recorded sensor-assay potency score (higher = more potent) of TAGAAGTCCCGGATGATGGCAT , assay system CLDN6.
Output: 0.0775

###

# subject of test: NDUFC1
# experimental protocol: pooled miR-30 sensor sort-seq; sequence = guide strand
# experimental parameters: shRNA
Rule: TRUE for sensor-assay potency score (higher = more potent) not less than -0.5, FALSE for anything less.

Input: Quick check, sensor-assay potency score (higher = more potent) >= -0.5? TAAAATATCTTCATTGTGTTGT
Output: TRUE

Input: Quick check, sensor-assay potency score (higher = more potent) >= -0.5? TTTTGTACTCTAAAATATCTTC
Output: TRUE

Input: Quick check, sensor-assay potency score (higher = more potent) >= -0.5? TTCATTGTGTTGTTTGATGAGA
Output: TRUE

Input: Quick check, sensor-assay potency score (higher = more potent) >= -0.5? TATATATTCACATATAACTTTT
Output: FALSE

Input: Quick check, sensor-assay potency score (higher = more potent) >= -0.5? TAGAACTTTGATCGCACTGAAG
Output: FALSE

Continuing:
Input: Quick check, sensor-assay potency score (higher = more potent) >= -0.5? TTGTTTGATGAGATAGATCCAC
Output: FALSE

Input: Quick check, sensor-assay potency score (higher = more potent) >= -0.5? TAGATCCACAAGAAGACAGTGG
Output: TRUE

###

# subject of test: MRPL21
# experimental protocol: pooled miR-30 sensor sort-seq; sequence = guide strand
# experimental parameters: shRNA
test readout: sensor-assay potency score (higher = more potent)
Please respond with just the number, no unit label.

Input: Assign sensor-assay potency score (higher = more potent) to the following record: TTCTTCTTGAAGTTTTTCCTTT
Output: -0.465

###

# subject of test: MPG
# experimental protocol: pooled miR-30 sensor sort-seq; sequence = guide strand
# experimental parameters: shRNA
test readout: sensor-assay potency score (higher = more potent)

Input: Name the recorded sensor-assay potency score (higher = more potent) of TCGACCACACTGACCCAGGGGC , assay system MPG.
Output: -0.746

Input: Name the recorded sensor-assay potency score (higher = more potent) of TAAATGATGTACACGTACAGGG , assay system MPG.
Output: -0.261

Continuing:
Input: Name the recorded sensor-assay potency score (higher = more potent) of TCATGCAGAAGTACATGCCGTA , assay system MPG.
Output: 0.083

Input: Name the recorded sensor-assay potency score (higher = more potent) of TACAGCTTCATCCTGTGCCAGG , assay system MPG.
Output: -1.03

Input: Name the recorded sensor-assay potency score (higher = more potent) of TCTGTCGACCACACTGACCCAG , assay system MPG.
Output: -0.682

Input: Name the recorded sensor-assay potency score (higher = more potent) of TTCTTTTGCCCCATCCGTCGGC , assay system MPG.
Output: -0.549

###

# subject of test: RNF122
# experimental protocol: pooled miR-30 sensor sort-seq; sequence = guide strand
# experimental parameters: shRNA
test readout: sensor-assay potency score (higher = more potent)

Input: Assign sensor-assay potency score (higher = more potent) to the following record: ATCCGTATCGCTCACTCTGTGC
Output: -0.963

// below: sensor-assay potency score (higher = more potent) requested for another sequence
Input: Assign sensor-assay potency score (higher = more potent) to the following record: ATAATTGTAACTTCTTGGCATC
Output: -0.737

###

# subject of test: ITGAM
# experimental protocol: pooled miR-30 sensor sort-seq; sequence = guide strand
# experimental parameters: shRNA
Rule: 1 for sensor-assay potency score (higher = more potent) not less than -0.2, -1 for anything less.

Reference set, count: 3
Input: Quick check, sensor-assay potency score (higher = more potent) >= -0.2? TTGAACTCCATGATTGCCTTGA
Output: 1

Input: Quick check, sensor-assay potency score (higher = more potent) >= -0.2? TTCTCTTGGAAGGTCATTGCGT
Output: -1

Input: Quick check, sensor-assay potency score (higher = more potent) >= -0.2? TTGATGTACCAGTCAAACGAGA
Output: -1

Continuing:
Input: Quick check, sensor-assay potency score (higher = more potent) >= -0.2? TTAAACAAGATCTCAGCTGTGC
Output: 1

Input: Quick check, sensor-assay potency score (higher = more potent) >= -0.2? TTACACTCAAATACATTCCTTG
Output: 1

Input: Quick check, sensor-assay potency score (higher = more potent) >= -0.2? TTGCTGTCCACGTCCACGGAGC
Output: -1

Input: Quick check, sensor-assay potency score (higher = more potent) >= -0.2? TTCCTTGCCTTTCACCACCTGA
Output: -1

###

# subject of test: NAP1L5
# experimental protocol: pooled miR-30 sensor sort-seq; sequence = guide strand
# experimental parameters: shRNA
Rule: T for sensor-assay potency score (higher = more potent) not less than -0.6, F for anything less.

Input: Quick check, sensor-assay potency score (higher = more potent) >= -0.6? TTTTTGAGGGCCAGGACTCGGC
Output: F

Continuing:
Input: Quick check, sensor-assay potency score (higher = more potent) >= -0.6? TATCTTATCGCATCGCTTCTGC
Output: T

Input: Quick check, sensor-assay potency score (higher = more potent) >= -0.6? TCTATCTTATCGCATCGCTTCT
Output: F

Input: Quick check, sensor-assay potency score (higher = more potent) >= -0.6? TCTTATCGCATCGCTTCTGCAG
Output: F

###

# subject of test: CDH19
# experimental protocol: pooled miR-30 sensor sort-seq; sequence = guide strand
# experimental parameters: shRNA
test readout: sensor-assay potency score (higher = more potent)
Please respond with just the number, no unit label.

Input: Assign sensor-assay potency score (higher = more potent) to the following record: ATCAGTATTAGCTTCTTCGAGC
Output: -1.26

Input: Assign sensor-assay potency score (higher = more potent) to the following record: TAACTTTTGCTCTAATACCGTA
Output: -0.771

Input: Assign sensor-assay potency score (higher = more potent) to the following record: TTCATTGTCATTGATATCCGAA
Output: 0.271

Input: Assign sensor-assay potency score (higher = more potent) to the following record: TACTTGTAGTGATTGTACCATT
Output: -0.931

Input: Assign sensor-assay potency score (higher = more potent) to the following record: TAGTCTGAATTACCTGACCAGA
Output: -1.28

Input: Assign sensor-assay potency score (higher = more potent) to the following record: TTGTTCCAGACAACGCTCCTGG
Output: -0.175

Input: Assign sensor-assay potency score (higher = more potent) to the following record: TTAATTAATACACTTGTTGTTC
Output: -0.144

Continuing:
Input: Assign sensor-assay potency score (higher = more potent) to the following record: TTTTCCAGAATGAATTTCCTGA
Output: -0.246
